test system: giant foxtail; assay: Test B pre-/postemergence herbicide test; format: in vivo, Setaria faberi; settings: 500 g ai/ha; visual rating 0-100, 0 no effect, 100 complete control; preemergence
So I've got a bunch of compounds here, and I need their Plant response rating, Foxtail, Giant values.
// no unit string in output, number only

Input line: Quick check: Plant response rating, Foxtail, Giant of CCOC(=O)c1cccc(NC(=O)c2sc(C(C)(C)C)nc2CC)c1 [Compound 204] ?
Output line: 0

Input line: Quick check: Plant response rating, Foxtail, Giant of CCNC(=O)c1cccc(NC(=O)c2nn(C(C)(C)C)cc2C(F)(F)F)c1 [Compound 170] ?
Output line: 20

Input line: Quick check: Plant response rating, Foxtail, Giant of CCNC(=O)c1cccc(NC(=O)c2cc(C(C)(C)C)nn2CC)n1 [Compound 144] ?
Output line: 100

Input line: Quick check: Plant response rating, Foxtail, Giant of CCn1nc(C(C)(C)C)cc1C(=O)Nc1cc(C(=O)NCC2CC2)ccn1 [Compound 155] ?
Output line: 90

Input line: Quick check: Plant response rating, Foxtail, Giant of Cn1nc(C(C)(C)C)cc1C(=O)Nc1cccc(C#N)c1 [Compound 121] ?
Output line: 70

Input line: Quick check: Plant response rating, Foxtail, Giant of CCNC(=O)c1ccc(F)c(NC(=O)c2cn(C(C)(C)C)nc2CC)c1 [Compound 193] ?
Output line: 100

Input line: Quick check: Plant response rating, Foxtail, Giant of CCc1nc(C(C)(C)C)sc1C(=O)Nc1cccc(C(=O)NCCF)c1 [Compound 209] ?
Output line: 60

Input line: Quick check: Plant response rating, Foxtail, Giant of CC(=O)c1cccc(NC(=O)c2cc(C(C)(C)C)nn2CC(F)(F)F)c1 [Compound 126] ?
Output line: 0

Input line: Quick check: Plant response rating, Foxtail, Giant of CCN(CC)C(=O)c1ccnc(NC(=O)c2cc(C(C)(C)C)nn2CC)c1 [Compound 153] ?
Output line: 50

Source listed as patent US20060069132A1.
